tested on: MCF7; assay: Antiproliferative activity against human MCF7/ADR cells assessed as reduction in cell viability after 48 hrs by MTT assay; type: functional, cell-based; conditions: MCF7, 48 h
Reported property: IC50 (µM)
Your answer is read as µM, so omit the unit and give the number.

Solved cases below.
Query smiles	Reported property	Value observed
CCCCCCCCCCOC(=O)/C=C/[C@H](C)[C@H]1CC[C@]2(C)C[C@@H]3C(C)=CC(=O)[C@H]3/C(C=O)=C\C[C@@H]12	IC50	1.03
CCCCCOC(=O)/C=C\C=C/[C@H](C)[C@H]1CC[C@]2(C)C[C@@H]3C(C)=CC(=O)[C@H]3/C(C=O)=C\C[C@@H]12	IC50	1.37

Kindly review the next molecule as well.
Ask: Supply recorded IC50 for CC1=CC(=O)[C@H]2/C(C=O)=C\C[C@H]3[C@@H]([C@@H](C)/C=C/C(=O)OCCOCCOCCOC(=O)CC45CC6CC(CC(C6)C4)C5)CC[C@]3(C)C[C@H]12 here.
Result: 1.15
